Please provide measured viability for the entries that follow.
# Method Notes: growth suppression of beta-catenin knockout HCT116, pilot screen, human colon tumor cells (AID 823);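 note: 0% = wells killed by 20 µM Hyamine and 100% = untreated DMSO cell wells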
# Condition Label: CellTiter-Glo, 60 h, at 10 µM, hits give low values
Records with an inconclusive call do not appear.
The reply should be a number in %, with the unit left off.

Input O=C(NCCc1ccc(S(=O)(=O)N2CCCC2)cc1)c1cccs1 . Output viability: 93.4

For reference, reported viability for O=C(CSc1oc(-c2ccco2)nc1S(=O)(=O)c1ccc(Cl)cc1)NCC1CCCO1 (stereo not drawn) stands at 96.9

Reported viability of O=C(Cn1c(NCCCO)nc2ccccc21)c1cccs1 : 110

Reported viability ( c1ccc(CSc2nnc(-c3ccncc3)o2)cc1 ) = 109

// COc1ccc(OC)c(N(CC(=O)O)S(=O)(=O)c2ccc(OC)c(OC)c2)c1 : viability value = 98.9

The molecule listed as Cc1ccc(-c2nc3cccnc3o2)cc1NC(=O)COc1ccc(Cl)cc1C has a reported viability of 17.5

// recorded viability for O=C(NCc1ccccn1)c1nnc(Cc2ccc(Cl)cc2)o1 : 108

Lab note: CSC1=NCCN1C(=O)c1ccc(Br)o1 gave viability of 102

The reported viability of the molecule CN(C)c1ccnc2sc(C(=O)NCc3ccccc3)c(N)c12 was 81.3

Reported viability of Cc1cccc(NC(=O)NCCN2C(=O)C3C4C=CC(C4)C3C2=O)c1 (stereo not drawn) : 104

// viability value for O=C(Nc1ccccc1Cl)c1ccc2c(c1)N(Cc1ccc(F)cc1)C(=O)CS2=O (stereo not drawn) : 83.3

According to the records, this molecule Cc1ccc(CNC(=O)C2CCCN(c3nc4ccccc4o3)C2)cc1 (stereo not drawn) displays viability of 101

Briefly, viability measured for Cc1cc(C)cc(N(CC(=O)N2CCN(Cc3ccccc3)CC2)S(=O)(=O)c2c(C)noc2C)c1 : 101

Entry under test: COc1ccccc1N1C(=O)N(C(C)=O)C2C1Nc1ccccc1N2C (stereo not drawn) . Its viability was 78.2

response.value for Cc1onc(-c2ccccc2)c1C(=O)Nc1nnc(N(C)Cc2ccccc2)s1 (field: viability) = 89.8

Reported viability of O=C(O)c1ccc(F)c(S(=O)(=O)Nc2ccccc2)c1 : 96.2

So, Cc1ccc(S(=O)(=O)N2CCC(C(=O)N[C@@H](C)C(=O)NCC3CCCO3)CC2)cc1 (stereo partly drawn) ? Its viability was 97

// viability lookup, molecule = Cc1cc(N)n2ncc(-c3cccc(Br)c3)c2n1 , result: 75.4

Lab note: CCOCCCNC(=O)C1CCC(CNS(=O)(=O)c2ccc(F)cc2)CC1 (stereo not drawn) gave viability of 95.5

Just so you know, measured viability for COC(=O)CCC(=O)Nc1nc(-c2ccccc2)cs1 came out at 99

Reported viability ( CC(NC(=O)COc1ccccc1)C(c1ccccc1)N1CCN(C)CC1 (stereo not drawn) ) = 97

For this molecule ( O=C(NCc1nc2ccccc2[nH]1)c1cccs1 ), measured viability is 105

For this molecule ( Cc1ccnc(N2C(=O)c3ccccc3C2Nc2cccc(C)c2C)c1 (stereo not drawn) ), measured viability is 92

----------
For each of the molecules below, state its viability.
# Method Notes: HUVEC growth inhibition – cell-based, human, primary screen (AID 575);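 note: 100% = median of untreated cell wells with 0.1% DMSO on each plate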
# Condition Label: HUVEC proliferation, CellTiter-Glo luminescence, 72 h; at 10 µM; hits give low values
Your answer should be a plain number; it is taken to be in %.

The recorded viability for entry CN(C)/C=C(\C#N)c1nc2ccccc2[nH]1 equals 97.6

Given item CCC(=O)O[C@@H]1CC(=O)O[C@H](C)CC=CC=C[C@@H](O)[C@H](C)C[C@H](CC=O)[C@H](O[C@H]2O[C@H](C)[C@@H](O[C@H]3C[C@@](C)(O)[C@@H](OC(=O)CC)[C@H](C)O3)[C@H](N(C)C)[C@H]2O)[C@H]1OC , the value recorded as its viability is 109

Entry under test: CCCNC(=O)c1ccccc1NC(=O)CN(c1ccccc1OCC)S(C)(=O)=O . Its viability was 112

// field: viability; key: CC(=O)NCCOc1cccc(OCCNC(C)=O)c1 ; value = 103

GET /value?item= COc1ccc2c(c1)cc(C(=O)O)n2C &field=viability returns 102

// viability value for O=c1[nH]c(NCc2ccco2)nnc1Cc1ccccc1Cl : 41.2

// field: viability; key: O=C(CCc1nc2ccccc2[nH]1)Nc1ccc2c(c1)OCO2 ; value = 48.6

According to the records, this molecule CCOc1nc(-c2ccccc2)ccc1-c1noc(-c2cccnc2)n1 displays viability of 124

For O=C(Cn1nnc(-c2ccccc2)n1)Nc1ccccc1N1CCOCC1 the molecule record lists viability as 110

For reference, reported viability for Cc1ccc(C)c(NC(=O)CC(NCCCN2CCOCC2)C(=O)O)c1 (stereo not given) stands at 106

----------
Can you tell me viability for the items I'm about to list?
# Method Notes: growth suppression of beta-catenin knockout HCT116, pilot screen, human colon tumor cells (AID 823);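 note: 0% = wells killed by 20 µM Hyamine and 100% = untreated DMSO cell wells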
# Condition Label: CellTiter-Glo, 60 h, at 10 µM, hits give low values
Results filed as inconclusive are left out.
Numeric only. Scale: %

For COc1ccc(CCNC(=O)c2ccco2)cc1 the compound record lists viability as 107

According to the records, this compound Cc1cc(Nc2cc(C)on2)n2ncnc2n1 displays viability of 106

viability reading for CCN(CC)c1ccc(NC(=O)c2ccc(NC(=O)C3CCCO3)cc2)c(C)c1 (stereo unspecified) : 94.8

viability reported for this compound COc1ccccc1-c1c(C#N)c(SCC(=O)N2CCCC2)nc(C)c1C(N)=O : 101

viability reading for N=c1c2c(n(Cc3ccc(F)cc3)c3c1CCC3)CCC2 : 34.5

// viability lookup, compound = O=S(=O)(Nc1nnc(-c2ccccc2)s1)c1ccc(Cl)cc1 , result: 104

----------
Kindly state viability increase for each of the entries shown.
# Method Notes: viability gain of MRP-1-high H69AR cells under doxorubicin, pilot screen, MRP-1 activator project, CellTiter-Glo, duplicate (AID 807);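 note: compound pretreatment 18-22 h then 72 h combined with doxorubicin; 0% = doxorubicin alone and 100% = vehicle without doxorubicin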
# Condition Label: H69AR viability with doxorubicin, CellTiter-Glo luminescence; at 10 µM; hits give high values
Write the value in % as a bare number.

Lab note: measured viability increase of COc1ccc(NC(=O)c2cncc(Br)c2)c(S(=O)(=O)N2CCOCC2)c1 was -5.06

// COC(=O)C(C)Sc1nnc(-c2ccncc2)o1 (stereo unspecified) : viability increase value = -0.71

Form: compound = COc1ccc(S(=O)(=O)Cc2ccc(C(=O)N3CCN(C(=O)c4ccco4)CC3)o2)cc1 ; viability increase = -2.09

Memo: Cc1cc(Nc2ncc(Cl)cc2Cl)n(-c2ccccn2)n1 , reported viability increase: -5.35

Just so you know, measured viability increase for CCOC(=O)c1cc2c(=O)n3ccccc3nc2n(CCOC)c1=NC(=O)c1ccncc1 came out at -5.7

What the record says about O=C(NCCOC(=O)c1ccncc1)c1ccccc1 : viability increase is -0.4

In plain terms, c1cnn(-c2nc(N3CCOCC3)nc(N3CCOCC3)n2)c1 has a documented viability increase of -5.18

get_value(item= CCCCn1c(C(C)NC(=O)CCC)nc2ccccc21 (stereo unspecified) , readout=viability increase) returns 1.35

CN1CCCN(Cc2ccccc2C(F)(F)F)CC1 has a reported viability increase of -1.78

viability increase in this record for Oc1ccc(-c2nc3cnccn3c2Nc2ccc3c(c2)OCCO3)cc1 : -6.18

Looking up CCCC(=O)c1cc(F)c(N2CCN(CCC#N)CC2)cc1C , I see its viability increase listed as -0.66

----------
# Method Notes: inhibitors of the yeast RAM network, pilot screen, dse1pr::URA3 reporter, 5-FOA selection (AID 869);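 note: 0% = DMSO wells with no growth and 100% = 10 µM 1-NA-PP1 with full growth; RAM network block rescues cells from 5-FOA so hits raise OD615 growth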
# Condition Label: S. cerevisiae dse1pr::URA3 5-FOA growth, OD615, 2 d; at 10 µM; hits give high values; strain carries analog-sensitive mutant Cbk1 kinase
Calls of active or inactive are those of the source.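 The calls were made as follows: active = inhibition over a set limit, the all-compound mean plus 3 SD, in both replicate runs; inconclusive = over that limit in just one replicate run; inactive = at or under that limit in both runs.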
For each record, write down the corresponding inhibition.

Given item CSc1nc(N2CCN(CCO)CC2)c2sc3nc(-c4ccco4)c4c(c3c2n1)CCC4 , the value recorded as its inhibition is -1.67% (inactive)

Form: compound = CCC(=O)NCCn1c(C)cc2ccccc21 ; inhibition = 1.91% (inactive)

Lookup result for O=C(O)c1cccc(CN2C(=O)CSC2=O)c1 ; measured inhibition: 0.91% (inactive)

// sample Fc1ccc(C2CC(c3ccccc3)Nc3ncnn32)cc1 (stereo unspecified) , its inhibition was 1.04% (inactive)

Measured inhibition of Cc1cccc(N=C2NC(=O)/C(=C3/C(=O)N(C)c4ccccc43)S2)c1C : 2.91% (inactive)

// CCOc1cccc(OCCOCCN(C)Cc2ccccc2)c1 : inhibition value = 0.55% (inactive)

----------
# Method Notes: growth suppression of beta-catenin knockout HCT116, pilot screen, human colon tumor cells (AID 823);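 note: 0% = wells killed by 20 µM Hyamine and 100% = untreated DMSO cell wells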
# Condition Label: CellTiter-Glo, 60 h, at 10 µM, hits give low values
Inconclusive results are not listed.
Exercise: for every item that follows, state its recorded viability.
Quick note: give the figure in %, leave out the unit.

The molecule listed as CCCCCc1nnc(NC(=O)OCCC)s1 has a reported viability of 97.8

Sure, the documented viability for c1ccc(N2CCN(c3nnnn3-c3ccccc3)CC2)cc1 is 76

viability measured on COc1ccc(OC)c(CCNC(=O)C2CCN(c3nnc(-n4cccc4)s3)CC2)c1 = 85.2

// viability value for CNC(=O)c1ccc(-c2sc3nc(N4CCOCC4)c4c(c3c2N)CCCC4)o1 : 39.6

Per the records, this molecule ( C=CCNC(=O)c1ccc(C)cc1Cl ) has viability equal to 95.5

Looking up O=C(Cn1cc2c(n1)CCCCC2)NCc1ccccn1 , I found its viability recorded as 95.6

Item: O=C(Nc1ccc(S(=O)(=O)N2CCOCC2)cc1)c1ccc(Cl)cc1 | viability: 61.1

// field: viability; key: COc1cccc(-c2nnc(NC(=O)C3CCCCC3)o2)c1 ; value = 83.5

Measured viability, O=C(O)c1ccc2c(c1)N(Cc1cccc(F)c1)C(=O)CS2 : 102

For reference, reported viability for CCOc1ccccc1Nc1nc2ccccc2n2cnnc12 stands at 81.6

Summary for this molecule, CC(=O)c1sc2ccccc2c1OC(=O)c1ccco1 : viability is 83

Briefly, viability measured for CC(=O)N1CCc2cc(C(=O)CN3CCN(c4ccccc4F)CC3)ccc21 : 93.7

CCOc1ccc(CC(=O)NCc2cn3c(C)csc3n2)cc1 yielded viability of 97.4

The value of viability measured for the molecule COc1ccccc1-c1c(C)nn2c(NCCN3CCCC3)cc(C)nc12 turned out to be 87.1

Quick note, viability for O=C(NCc1cccs1)c1cnc2sccn2c1=O landed at 99.3

Quick note, viability for O=C(CN1C(=O)c2cccc3cccc1c23)N1CCN(c2ccc(F)cc2)CC1 landed at 94.1

Record Cc1cc(=O)oc(C)c1C(=O)N1CCc2c([nH]c3ccccc23)C1C(C)C (stereo unspecified) . Reported viability: 94.9

Record CC1CCCCC1NC(=O)C1CCN(C(=O)c2sccc2-n2cccc2)CC1 (stereo unspecified) . Reported viability: 105

Query Cn1c(C(=O)NCc2cccs2)cc2c(=O)n(C)c3ccccc3c21 yields viability of 98.9

Per the records, this molecule ( Cc1nnc2ccc(N3CCN(C(=O)c4ccccc4)CC3)nn12 ) has viability equal to 98.9

get_value(item= CCOC(=O)c1ccccc1NC(=O)CC1Nc2ccccc2NC1=O (stereo unspecified) , readout=viability) returns 55.7

Measured viability of CN(Cc1ccccc1)C(=O)COC(=O)c1ccc2c(c1)OCO2 : 101

Measured viability of CC(=O)Nc1cc(OC(=O)c2ccco2)cc(OC(=O)c2ccco2)c1 : 103

// field: viability; key: CCC(=O)Nc1cccc(NC(=O)c2cc3ccccc3o2)c1 ; value = 93.8

For record Cc1c(C(=O)Nc2ccncc2)sc2nc(-c3ccc(F)cc3)cn12 the listed viability is 42.3

Reported viability of CC(=O)N1CCC(C(=O)Nc2ccccc2)(N(Cc2ccccc2)C(=O)c2cccnc2)CC1 : 95.7

Query O=C1Cc2ccccc2C(=O)N1CCc1ccccc1 yields viability of 97.2

Per the records, this molecule ( O=C1c2ccccc2C(Nc2ccc3c(c2)OCCO3)N1c1ccccn1 (stereo unspecified) ) has viability equal to 81.5

Value of viability reported for the molecule COc1ccc(-n2c(Cn3c(=O)sc4ccccc43)nnc2SCC(=O)N2CCCC2)cc1 is 104

Please fill in: viability reported for COc1ccc(C(=O)Nc2cc3c(cc2C#N)OCO3)cc1S(=O)(=O)N1CCN(C)CC1 = 100

Recorded result, CCN(CCNC(=O)C1CCN(c2nnc(-n3cccc3)s2)CC1)c1ccccc1 , viability: 90.6

What the record says about CCOC(=O)c1nnn(-c2nonc2N)c1COc1ccccc1 : viability is 89.5

For reference, reported viability for O=C(c1ccccc1)C(Sc1ncn[nH]1)c1ccccc1 (stereo unspecified) stands at 92.5

Field viability (entry Cc1ccc2oc(=O)c3cnn(CC(=O)NC4CCN(Cc5ccccc5)CC4)c3c2c1 ) reads 88.3

# molecule O=C(Cn1nnc(-c2ccccc2NC(=O)c2ccccc2F)n1)NCc1ccco1 ; its viability = 73.9

For this molecule ( COc1ccc(S(=O)(=O)N2CCC(C(=O)Nc3cccc(Cl)c3)CC2)cc1OC ), measured viability is 75.9

Memo: COc1ccc(OC)c(NC(=O)c2ccc(CN3CCOCC3)cc2)c1 , reported viability: 104

Entry under test: COC(=O)c1cn(NC(=O)C2CCCCC2)c(=O)c2ccccc12 . Its viability was 94.3

# viability of O=C(NCc1cccnc1)c1nnc(Cc2ccc(F)cc2)o1 = 98.4

Value of viability reported for the molecule CC(C)n1c(CNC(=O)c2ccccc2)nc2ccccc21 is 100

// recorded viability for CC1CCCC(NC(=O)Cn2cc3c(n2)CCCCC3)C1C (stereo unspecified) : 95.7

viability for COc1ccc(CN2CCN(c3cccc(C)c3C)CC2)cc1OC is 51.8

Data point: COC(=O)c1ccc(NC(=O)c2cnc3scc(C)n3c2=O)cc1 ; viability = 101

Kindly note the recorded viability for CCn1c2ccccc2c2cc(NC(=O)c3ccco3)ccc21 , which is 96.1

So, COC(=O)c1ccc2c(c1)N(Cc1cc(C)ccc1C)C(=O)c1ccccc1S2=O (stereo unspecified) ? Its viability was 96.8

Briefly, viability measured for CCCNC(=O)NCCc1c(C)[nH]c2ccccc12 : 99.8
